# GI50 listing for each entry below
# Test system: PC-3 prostate
# experiment.summary: NCI tumour cell line growth inhibition, 48 h
property.label: GI50

- CC[n+]1ccc2c(c1)C(=O)c1nccc3c1c-2nc1ccccc13: 1.81 µM
- N#Cc1nc(-c2ccc(F)cc2)oc1S(=O)(=O)N1CCOCC1: 11.6 µM
- CC1=C2[C@@H](CC1)[C@]1(C)O[C@@](C(C)C)(C[C@H]1OC(=O)[C@H](C)O)[C@H]2OC(=O)/C=C/c1ccccc1: 4.46 µM
- C[C@@H]1Cc2c([nH]c3ccccc23)[C@@H](c2c(F)cc(/C=C/C(=O)O)cc2F)N1CC(C)(C)F: 10.2 µM
- CN=C1NC(=O)/C(=C/c2ccc3ncccc3c2)S1: 13.8 µM
- COc1ccccc1NC(=O)c1ccc(/C=C/C(=O)c2nccn2C)cc1: 0.628 µM
- Cn1cc(C2=C(c3ccc(OC[C@@H](O)CO)cc3)C(=O)NC2=O)c2ccccc21: > 25 µM
- CC1=C(CCCOC(=O)NCCCl)C2=C(C)C3(CC3)[C@@](C)(O)C(=O)C2=C1: 4.01 µM
- CCN1CCN(c2nc(NCCNc3ccnc4cc(Cl)ccc34)c3ccccc3n2)CC1: 2.4 µM
- CCCCCCCCCCCCOC1C(CNCC2OC3OC(C)(C)OC3C2NC(=O)Nc2ccc(C(=O)OCC)cc2)OC2OC(C)(C)OC21 (stereo not given): 2.21 µM
